testTarget: PfCSPC, C-terminal αTSR domain of P. falciparum NF54 circumsporozoite protein (E310-S384) (P. falciparum NF54, UniProt P19597)
Sequence (P19597 310-384): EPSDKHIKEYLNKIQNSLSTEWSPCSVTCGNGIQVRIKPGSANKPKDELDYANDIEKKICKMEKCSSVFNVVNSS

binder	binding result
sdAb8 (VHH) VHH: QVQLQESGGGLVQAGGSLRLSCAASGRTVSSYTMGWFRQAPGKERSFVAASLRSGGSTYYSDSVKGRFTISRDNAKNTVYLQMNSLRPEDTAVYYCAADEQLAYNINYNYRNYDYWGQGTQVTVSS	binds
sdAb6 (VHH) VHH: QVQLQESGGGLVQAGGSLRVSCVGSGRAFSRYSMGWFRQFPGKEREFVACISSSGGAIDYADSVKGRFTISRDNAKNAVYLQMNSLKPDDTAVYYCAADQFRISTVPMGVIDYWGQGTQVTVSS	binds
